system: Candida albicans; test: Antifungal activity against Candida albicans ATCC 10231 after 7 days by agar dilution method; format: functional; details: ATCC 10231, 168 h

- moleculeSmiles: "O=C1CSC(=S)N1"
  op: "="
  MIC / µg/mL: 800
- moleculeSmiles: "NN1C(=O)CSC1=S"
  op: "="
  MIC / µg/mL: 12.5
- moleculeSmiles: "O=C(NN1C(=O)CSC1=S)c1ccccc1"
  op: ">"
  MIC / µg/mL: 1000
- moleculeSmiles: "CC(=O)NN1C(=O)CSC1=S"
  op: ">"
  MIC / µg/mL: 1000

====

Each record here notes measured MIC.
test system: Wickerhamomyces anomalus; assay: Antifungal activity against Wickerhamomyces anomalus OPS 308 after 7 days by agar dilution method; type: functional; conditions: Hansenula anomala, OPS 308, 168 h
assayMetric: MIC (µg/mL)

- moleculeSmiles: "CC(=O)NN1C(=O)CSC1=S"
  unitAbbreviation: "µg/mL"
  op: ">"
  obsValue: 1000
- moleculeSmiles: "NN1C(=O)CSC1=S"
  unitAbbreviation: "µg/mL"
  op: "="
  obsValue: 25
- moleculeSmiles: "O=C1CSC(=S)N1"
  unitAbbreviation: "µg/mL"
  op: "="
  obsValue: 400
- moleculeSmiles: "O=C(NN1C(=O)CSC1=S)c1ccccc1"
  unitAbbreviation: "µg/mL"
  op: ">"
  obsValue: 1000

The values you see were collected from ChEMBL document CHEMBL3046198.
